Tested on: KRas G12D-mediated phosphorylation of ERK
Test: Inhibition of KRas G12D-mediated phosphorylation of ERK in AGS cells
Assay type: cell-based
Details: Homo sapiens; AGS cells expressing G12D, 3 hours, phospho-ERK normalized to GAPDH
Examples of compounds with documented IC50 follow.

Record excerpt, results attached:
compound: O[C@@H]1C[C@@H]2CN(c3nc(OCCc4ccc(F)cn4)nc4c(F)c(-c5cccc6cccc(Cl)c56)ncc34)C[C@H]1N2 [Example 32]
target system: KRas G12D-mediated phosphorylation of ERK
IC50: > 50 µM
//
compound: Nc1ccc(CCOc2nc(N3C[C@H]4CC[C@@H](C3)N4)c3cnc(-c4cccc5cccc(Cl)c45)c(F)c3n2)cn1 [Example 141]
target system: KRas G12D-mediated phosphorylation of ERK
IC50: > 16.7 µM
//
compound: CN1CCC[C@H]1COc1nc(N2CC3CCC(C(N)=O)(C2)N3)c2cnc(-c3cc(O)cc4ccccc34)c(F)c2n1 (some centres unmarked) [Example 159, bis(2,2,2-trifluoroacetate)]
target system: KRas G12D-mediated phosphorylation of ERK
IC50: > 16.7 µM
//
compound: CC1(C)CN2C[C@H](F)CC2(COc2nc(N3CC4CCC(C3)N4)c3cnc(-c4cccc5cccc(Cl)c45)c(F)c3n2)C1 (mixture of isomers) [Example 325]
target system: KRas G12D-mediated phosphorylation of ERK
IC50: > 16.7 µM

Now, please, on to the next compound.
Q: Request: IC50, test system KRas G12D-mediated phosphorylation of ERK, entry Fc1c(-c2cccc3cccc(Cl)c23)ncc2c(N3CC4CCC(C3)N4)nc(OC[C@@]34CCCN3C[C@@H](C(F)(F)F)C4)nc12 (mixture of isomers) [Example 382]
A: > 16.7 µM
